Catalogue of viability at 24 h, 12.5 ug/ml readings, one per entry.
# Assay Overview: Cytotoxicity against mouse 3T3-L1 cells assessed as cell viability at 12.5 ug/ml measured after 24 hrs by MTT assay relative to control
# Format: toxicity, cell-based
# Cond: at 12.5 µg/mL, read-out: Activity
Your answer should be a plain number; it is taken to be in %.

Cc1ccc(-c2nn(-c3ccccc3)cc2-c2csc(Nc3ccccc3)n2)cc1 | 64.6
Cc1ccc(Nc2nc(-c3cn(-c4ccc(F)cc4)nc3-c3ccccc3)cs2)cc1 | 102
Fc1ccc(-n2cc(-c3csc(Nc4ccccc4)n3)c(-c3ccc(Cl)cc3)n2)cc1 | 69.2
Fc1ccc(-n2cc(-c3csc(Nc4ccc(Cl)cc4)n3)c(-c3ccc(Cl)cc3)n2)cc1 | 74.4
Cc1ccc(Nc2nc(-c3cn(-c4ccc(F)cc4)nc3-c3ccc(F)cc3)cs2)cc1 | 99.5

Look at this compound and give its reported viability at 24 h, 12.5 ug/ml. COc1ccc(Nc2nc(-c3cn(-c4ccc(F)cc4)nc3-c3ccccc3)cs2)cc1
98.2

And Fc1ccc(-n2cc(-c3csc(Nc4ccccc4)n3)c(-c3ccccc3)n2)cc1 ?
99.5

And COc1ccc(Nc2nc(-c3cn(-c4ccc(F)cc4)nc3-c3ccc(Cl)cc3)cs2)cc1 ?
72.9

And c1ccc(Nc2nc(-c3cn(-c4ccccc4)nc3-c3ccccc3)cs2)cc1 ?
97.5

---

# Assay Overview: Cytotoxicity against mouse 3T3-L1 cells assessed as cell viability at 25 ug/ml measured after 24 hrs by MTT assay relative to control
# Assay type: toxicity, cell-based
# Cond: at 25 µg/mL, read-out: Activity
Result Type: viability at 24 h, 25 ug/ml (%)
Your answer should be a plain number; it is taken to be in %.

Look at this compound and give its reported viability at 24 h, 25 ug/ml. COc1ccc(Nc2nc(-c3cn(-c4ccccc4)nc3-c3ccc(C)cc3)cs2)cc1
90.5

And Fc1ccc(-n2cc(-c3csc(Nc4ccc(Cl)cc4)n3)c(-c3ccc(Cl)cc3)n2)cc1 ?
56.7

And Cc1ccc(Nc2nc(-c3cn(-c4ccccc4)nc3-c3ccc(Cl)cc3)cs2)cc1 ?
72.9

And Cc1ccc(-c2nn(-c3ccccc3)cc2-c2csc(Nc3ccc(Cl)cc3)n2)cc1 ?
61.8

And Fc1ccc(-n2cc(-c3csc(Nc4ccc(Cl)cc4)n3)c(-c3ccccc3)n2)cc1 ?
46

And Fc1ccc(-n2cc(-c3csc(Nc4ccccc4)n3)c(-c3ccccc3)n2)cc1 ?
94.8

And Cc1ccc(Nc2nc(-c3cn(-c4ccc(F)cc4)nc3-c3ccccc3)cs2)cc1 ?
96.2

And COc1ccc(Nc2nc(-c3cn(-c4ccc(F)cc4)nc3-c3ccccc3)cs2)cc1 ?
97.2

And Cc1ccc(Nc2nc(-c3cn(-c4ccc(F)cc4)nc3-c3ccc(F)cc3)cs2)cc1 ?
114

---

Catalogue of inhibition zone (IZ) readings, one per entry.
# System: Proteus mirabilis
# Assay Overview: Antimicrobial activity against Proteus mirabilis NCIM 2388 assessed as zone of inhibition by well diffusion method
# Assay type: functional
Your answer should be a plain number; it is taken to be in mm.

Illustrative cases are given below, each with its answer.
Fc1ccc(-n2cc(-c3csc(Nc4ccc(Cl)cc4)n3)c(-c3ccc(Cl)cc3)n2)cc1 | 13.6
Clc1ccc(Nc2nc(-c3cn(-c4ccccc4)nc3-c3ccccc3)cs2)cc1 | 14.8
Cc1ccc(Nc2nc(-c3cn(-c4ccccc4)nc3-c3ccc(Cl)cc3)cs2)cc1 | 14
Clc1ccc(Nc2nc(-c3cn(-c4ccccc4)nc3-c3ccc(Cl)cc3)cs2)cc1 | 14
COc1ccc(Nc2nc(-c3cn(-c4ccccc4)nc3-c3ccc(Cl)cc3)cs2)cc1 | 14

Look at this compound and give its reported inhibition zone (IZ). Cc1ccc(-c2nn(-c3ccccc3)cc2-c2csc(Nc3ccccc3)n2)cc1
15

And Cc1ccc(Nc2nc(-c3cn(-c4ccc(F)cc4)nc3-c3ccc(F)cc3)cs2)cc1 ?
15

---

# Assay Overview: Cytotoxicity against mouse 3T3-L1 cells assessed as cell viability at 12.5 ug/ml measured after 24 hrs by MTT assay relative to control
# Format: toxicity, cell-based
# Cond: at 12.5 µg/mL, read-out: Activity
Catalogue of viability at 24 h, 12.5 ug/ml readings, one per entry.
Your answer should be a plain number; it is taken to be in %.

Illustrative cases are given below, each with its answer.
Cc1ccc(Nc2nc(-c3cn(-c4ccc(F)cc4)nc3-c3ccc(Cl)cc3)cs2)cc1 | 72
COc1ccc(Nc2nc(-c3cn(-c4ccc(F)cc4)nc3-c3ccc(F)cc3)cs2)cc1 | 113

Look at this compound and give its reported viability at 24 h, 12.5 ug/ml. COc1ccc(Nc2nc(-c3cn(-c4ccccc4)nc3-c3ccc(C)cc3)cs2)cc1
97.5

---

# System: Staphylococcus aureus
# Assay Overview: Antimicrobial activity against Staphylococcus aureus NCIM 2178 assessed as zone of inhibition by well diffusion method
# Type: functional
Result Type: inhibition zone (IZ) (mm)
Your answer should be a plain number; it is taken to be in mm.

COc1ccc(Nc2nc(-c3cn(-c4ccc(F)cc4)nc3-c3ccccc3)cs2)cc1 | 15
Clc1ccc(-c2nn(-c3ccccc3)cc2-c2csc(Nc3ccccc3)n2)cc1 | 14
Cc1ccc(Nc2nc(-c3cn(-c4ccccc4)nc3-c3ccccc3)cs2)cc1 | 15
Cc1ccc(Nc2nc(-c3cn(-c4ccccc4)nc3-c3ccc(Cl)cc3)cs2)cc1 | 15
c1ccc(Nc2nc(-c3cn(-c4ccccc4)nc3-c3ccccc3)cs2)cc1 | 16
Fc1ccc(-n2cc(-c3csc(Nc4ccc(Cl)cc4)n3)c(-c3ccccc3)n2)cc1 | 16
Fc1ccc(-c2nn(-c3ccc(F)cc3)cc2-c2csc(Nc3ccccc3)n2)cc1 | 15
CN[C@@H]1[C@H](O[C@H]2[C@H](O[C@H]3[C@H](O)[C@@H](O)[C@H](N=C(N)N)[C@@H](O)[C@@H]3N=C(N)N)O[C@@H](C)[C@]2(O)C=O)O[C@@H](CO)[C@H](O)[C@H]1O | 21

Look at this compound and give its reported inhibition zone (IZ). Cc1ccc(-c2nn(-c3ccccc3)cc2-c2csc(Nc3ccccc3)n2)cc1
15

---

# Assay Overview: Cytotoxicity against mouse 3T3-L1 cells assessed as cell viability at 12.5 ug/ml measured after 24 hrs by MTT assay relative to control
# Format: toxicity, cell-based
# Cond: at 12.5 µg/mL, read-out: Activity
Result Type: viability at 24 h, 12.5 ug/ml (%)
Your answer should be a plain number; it is taken to be in %.

Illustrative cases are given below, each with its answer.
Cc1ccc(Nc2nc(-c3cn(-c4ccccc4)nc3-c3ccc(Cl)cc3)cs2)cc1 | 83.8
Cc1ccc(Nc2nc(-c3cn(-c4ccccc4)nc3-c3ccc(C)cc3)cs2)cc1 | 70.1
Clc1ccc(Nc2nc(-c3cn(-c4ccccc4)nc3-c3ccc(Cl)cc3)cs2)cc1 | 118
Cc1ccc(-c2nn(-c3ccccc3)cc2-c2csc(Nc3ccc(Cl)cc3)n2)cc1 | 67.5

Please examine the following record next.
Look at this compound and give its reported viability at 24 h, 12.5 ug/ml. Fc1ccc(-n2cc(-c3csc(Nc4ccc(Cl)cc4)n3)c(-c3ccccc3)n2)cc1
102

---

# System: Staphylococcus aureus
# Assay Overview: Antimicrobial activity against Staphylococcus aureus NCIM 2178 assessed as zone of inhibition by well diffusion method
# Format: functional
Result Type: inhibition zone (IZ) (mm)
Your answer should be a plain number; it is taken to be in mm.

Illustrative cases are given below, each with its answer.
Fc1ccc(-n2cc(-c3csc(Nc4ccc(Cl)cc4)n3)c(-c3ccc(Cl)cc3)n2)cc1 | 15
Cc1ccc(Nc2nc(-c3cn(-c4ccc(F)cc4)nc3-c3ccc(F)cc3)cs2)cc1 | 13
Cc1ccc(Nc2nc(-c3cn(-c4ccc(F)cc4)nc3-c3ccccc3)cs2)cc1 | 17
Fc1ccc(-n2cc(-c3csc(Nc4ccccc4)n3)c(-c3ccc(Cl)cc3)n2)cc1 | 15
COc1ccc(Nc2nc(-c3cn(-c4ccc(F)cc4)nc3-c3ccc(F)cc3)cs2)cc1 | 15

Look at this molecule and give its reported inhibition zone (IZ). Clc1ccc(Nc2nc(-c3cn(-c4ccccc4)nc3-c3ccccc3)cs2)cc1
15.8

And COc1ccc(Nc2nc(-c3cn(-c4ccc(F)cc4)nc3-c3ccc(Cl)cc3)cs2)cc1 ?
15

---

# Assay Overview: Cytotoxicity against mouse 3T3-L1 cells assessed as cell viability at 25 ug/ml measured after 24 hrs by MTT assay relative to control
# Assay type: toxicity, cell-based
# Cond: at 25 µg/mL, read-out: Activity
Catalogue of viability at 24 h, 25 ug/ml readings, one per entry.
Your answer should be a plain number; it is taken to be in %.

Illustrative cases are given below, each with its answer.
Clc1ccc(Nc2nc(-c3cn(-c4ccccc4)nc3-c3ccc(Cl)cc3)cs2)cc1 | 99.2
COc1ccc(Nc2nc(-c3cn(-c4ccc(F)cc4)nc3-c3ccc(F)cc3)cs2)cc1 | 102
Fc1ccc(-n2cc(-c3csc(Nc4ccccc4)n3)c(-c3ccc(Cl)cc3)n2)cc1 | 62.6
COc1ccc(Nc2nc(-c3cn(-c4ccc(F)cc4)nc3-c3ccc(Cl)cc3)cs2)cc1 | 63.1
c1ccc(Nc2nc(-c3cn(-c4ccccc4)nc3-c3ccccc3)cs2)cc1 | 90.5
Cc1ccc(-c2nn(-c3ccccc3)cc2-c2csc(Nc3ccccc3)n2)cc1 | 57.3

Please examine the following record next.
Look at this compound and give its reported viability at 24 h, 25 ug/ml. Cc1ccc(Nc2nc(-c3cn(-c4ccc(F)cc4)nc3-c3ccc(Cl)cc3)cs2)cc1
91.3
